Source of measurements: the emibetuzumab library of Makowski et al. (2022)

B1: VH:VL chains; a variant is named by its letters at X, in order (parent)
chain 1: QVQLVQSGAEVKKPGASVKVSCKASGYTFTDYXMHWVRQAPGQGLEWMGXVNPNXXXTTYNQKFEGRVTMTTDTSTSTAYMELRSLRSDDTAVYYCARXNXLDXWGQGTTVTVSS
chain 2: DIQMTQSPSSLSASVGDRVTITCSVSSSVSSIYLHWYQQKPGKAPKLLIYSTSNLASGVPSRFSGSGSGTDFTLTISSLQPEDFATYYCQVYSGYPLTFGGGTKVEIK

variants of: B1; experiment: yeast display scFab, FACS + sequencing

| VARIANT_DESCRIPTOR | non-specific binding call |
| --- | --- |
| DEGKGFGS | binds |
| FRGRDYGD | binds |
| YAAKSDGY | binds |
| YKAKGALD | binds |
| YRGRSSWD | binds |
| YKGKGSGA | binds |
| VKKEDDVV | no binding |
| SETGADVA | no binding |
| YRARSAGF | binds |
| FRTRDAGD | no binding |
| DKRKGVAF | binds |
| VKEKGDLA | no binding |
| DAGKSDWY | no binding |
| DGGKNAGV | no binding |
| VGGGGDGS | no binding |
| SGEEGSGA | binds |
| DEGGTDGY | no binding |
| FAGRAAWA | binds |
| YRARGAWV | binds |
| YTTGGSSA | no binding |
| YRGEASVD | binds |
| FRGRGFSA | binds |
| VRRGSSVS | binds |
| AGGTSYSV | no binding |
| VAGTGDGA | no binding |
| YRARSSAA | binds |
| YRGRSAGV | binds |
| YRRRGSVF | binds |
| DRRANFLY | binds |
| SAAGGAAD chain 1 L45S | no binding |
| YREEGDVF | no binding |
| VTGRAAWV | no binding |
| VKEGGDGA | no binding |
| SGKKAVWV | binds |
| YKEGAYAD | binds |
| YKGRGSVD | binds |
| YKGAAFWA | binds |
| DREEGDGV | no binding |
| YTTGGAVA | no binding |
| VEKKDYSA | no binding |
| YRTGGSSV | binds |
| YRGRGVGA | binds |
| YGKGTSGF | no binding |
| VARAADAD | no binding |
| DGGRGDGA | no binding |
| VRAGDDVA | no binding |
| FRTGDDAA | no binding |
| DEGAGDGF | binds |
| DKTKSDWV | no binding |
| VKGRGFAA | binds |
| YGGGGAVA | no binding |
| FRGRGASD | binds |
| AEGGTDVV | no binding |
| VERGGDSY | no binding |
| FKGGNVGV | binds |
| VRAGADVY | no binding |
| YRAGGYWY | binds |
| YKARGSGS | binds |
| DEGGTDVA | no binding |
| VRRGGAWV | binds |
| DAGGASSV | no binding |
| DAGGASLD | no binding |
| YTRGAAGY | no binding |
| YRGGGAAF | binds |
| VTAGDSAD | no binding |
| YRGAGFVD | binds |
| YRRAADSD | binds |
| DAKRDSAS | no binding |
| FRGRASLS | binds |
| YKGKGSWA | binds |
| FRGRSSLA | binds |
